Biological target: ALK3 (Homo sapiens, UniProt P36894)
Construct: purchased Life technology (Fredrick, Md.) and/or CARNA BIOSCIENCES Inc. (Kobe, Japan)
Sequence (P36894 24-532): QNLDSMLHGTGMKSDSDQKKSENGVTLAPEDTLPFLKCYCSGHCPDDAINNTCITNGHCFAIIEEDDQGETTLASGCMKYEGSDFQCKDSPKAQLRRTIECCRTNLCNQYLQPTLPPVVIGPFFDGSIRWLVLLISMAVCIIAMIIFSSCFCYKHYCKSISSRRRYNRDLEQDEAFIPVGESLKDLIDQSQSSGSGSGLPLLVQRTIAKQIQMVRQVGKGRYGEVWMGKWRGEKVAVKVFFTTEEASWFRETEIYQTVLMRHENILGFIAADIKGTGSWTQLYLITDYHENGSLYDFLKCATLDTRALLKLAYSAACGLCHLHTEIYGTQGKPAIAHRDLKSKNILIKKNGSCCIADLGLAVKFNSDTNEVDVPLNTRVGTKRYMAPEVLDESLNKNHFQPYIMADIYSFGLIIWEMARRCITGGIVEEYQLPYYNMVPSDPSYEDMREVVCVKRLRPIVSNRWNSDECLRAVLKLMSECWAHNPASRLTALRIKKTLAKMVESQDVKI
Experiment: TR-FRET enzymatic assay, ALK3 kinase, 1536-well
Assay type: biochemical
Conditions: span of the concentration-response curve
Quantity: ALK3 Span

>>> result_number("Cc1cc(-c2cnn3cc(N4CCC(N5CCN(C)CC5)CC4)cnc23)c2ccccc2n1 [Compound 8]")
97.0
>>> result_number("COc1cc2c(-c3cnn4cc(N5CCC(N6CCN(C)CC6)CC5)cnc34)ccnc2cc1F [Compound 15]")
96.93
>>> result_number("Cc1cc(-c2cnn3cc(N4CCC(N5CCNCC5)CC4)cnc23)c2ccccc2n1 [Compound 34]")
104.4

====

Target: ALK5 (Homo sapiens, UniProt P36897)
Construct: purchased Life technology (Fredrick, Md.) and/or CARNA BIOSCIENCES Inc. (Kobe, Japan)
Sequence (P36897 34-503): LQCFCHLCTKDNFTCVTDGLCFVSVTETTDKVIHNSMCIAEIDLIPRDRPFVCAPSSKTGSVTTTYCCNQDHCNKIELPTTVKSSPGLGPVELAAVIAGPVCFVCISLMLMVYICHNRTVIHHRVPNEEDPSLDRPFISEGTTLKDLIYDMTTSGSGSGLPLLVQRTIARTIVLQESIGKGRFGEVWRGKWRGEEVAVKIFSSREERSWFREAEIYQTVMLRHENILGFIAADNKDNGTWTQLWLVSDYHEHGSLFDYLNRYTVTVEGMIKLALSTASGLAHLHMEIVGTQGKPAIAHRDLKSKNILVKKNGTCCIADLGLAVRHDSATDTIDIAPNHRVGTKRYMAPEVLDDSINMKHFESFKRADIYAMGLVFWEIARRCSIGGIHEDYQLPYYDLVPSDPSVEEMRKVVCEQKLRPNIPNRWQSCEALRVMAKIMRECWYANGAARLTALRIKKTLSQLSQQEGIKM
Experiment: TR-FRET enzymatic assay, ALK5 kinase, 1536-well
Format: biochemical
Settings: 10 nM ALK, Ulight topo II substrate 50 nM, ATP 10 uM (Table 1)
Quantity: IC50 (nM)

Record excerpt, results attached:
>>> result_number("COc1cc2c(-c3cnn4cc(N5CCC(N6CCN(C)CC6)CC5)cnc34)ccnc2cc1F")
8920
>>> result_number("Cc1cc(-c2cnn3cc(N4CCC(N5CCN(C)CC5)CC4)cnc23)c2ccccc2n1")
2470

P: Cc1cc(-c2cnn3cc(N4CCC(N5CCOCC5)CC4)cnc23)c2ccccc2n1
Q: Cc1cc(-c2cnn3cc(N4CCC(N5CCNCC5)CC4)cnc23)c2ccccc2n1
Q: Of P and Q , which carries the smaller reported IC50 figure? Please identify the chosen entry by its label.
Ans: P
(P: 2080 nM, Q: 4680 nM)

====

pIC50: −log10 of the molar value.
pIC50, UniProtKB P37173: measured values
Sequence (P37173 23-567): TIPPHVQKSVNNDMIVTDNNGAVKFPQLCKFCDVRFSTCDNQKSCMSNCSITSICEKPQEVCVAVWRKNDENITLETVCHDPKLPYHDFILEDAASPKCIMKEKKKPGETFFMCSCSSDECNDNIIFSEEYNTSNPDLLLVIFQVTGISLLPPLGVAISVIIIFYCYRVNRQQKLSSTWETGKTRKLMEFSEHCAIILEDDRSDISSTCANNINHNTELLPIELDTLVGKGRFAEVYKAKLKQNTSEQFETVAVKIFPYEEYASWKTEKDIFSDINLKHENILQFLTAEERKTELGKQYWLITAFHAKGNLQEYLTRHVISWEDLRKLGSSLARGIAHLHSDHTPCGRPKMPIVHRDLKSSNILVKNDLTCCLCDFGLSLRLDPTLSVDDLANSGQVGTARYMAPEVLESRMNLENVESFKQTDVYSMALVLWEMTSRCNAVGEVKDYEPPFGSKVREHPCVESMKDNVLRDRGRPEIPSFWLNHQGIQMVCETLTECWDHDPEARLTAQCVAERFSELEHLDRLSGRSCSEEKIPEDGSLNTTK
Quantity: pIC50

>>> result_number("c1ccc2c(-c3cnn4cc(-c5ccc(N6CCNCC6)cc5)cnc34)ccnc2c1")
8.09

I: c1ccc2c(-c3cnn4cc(N5CCN(C6CCNCC6)CC5)cnc34)ccnc2c1
II: c1ccc2c(-c3cnn4cc(N5CCNCC5)cnc34)ccnc2c1
Q: Of I and II , which carries the smaller reported pIC50 figure? Please identify the chosen entry by its label.
Ans: II

====

Biological target: ALK2 (Mus musculus, UniProt P37172)
Construct: endogenous in cells
Sequence (P37172 21-509): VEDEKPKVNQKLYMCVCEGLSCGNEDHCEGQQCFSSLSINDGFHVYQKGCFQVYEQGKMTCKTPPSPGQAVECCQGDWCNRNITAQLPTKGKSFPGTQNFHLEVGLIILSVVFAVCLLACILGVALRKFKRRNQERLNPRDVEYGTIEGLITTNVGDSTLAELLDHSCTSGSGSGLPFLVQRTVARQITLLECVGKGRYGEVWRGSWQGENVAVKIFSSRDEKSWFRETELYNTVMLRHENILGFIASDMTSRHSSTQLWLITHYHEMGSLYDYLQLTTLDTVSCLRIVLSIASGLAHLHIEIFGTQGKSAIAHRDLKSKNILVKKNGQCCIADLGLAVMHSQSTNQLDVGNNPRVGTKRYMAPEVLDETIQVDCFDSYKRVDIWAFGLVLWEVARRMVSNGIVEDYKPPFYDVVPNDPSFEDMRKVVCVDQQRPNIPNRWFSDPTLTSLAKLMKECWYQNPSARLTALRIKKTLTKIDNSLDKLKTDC
Test: Luciferase reporter gene assay for ALK2 activity (C2C12 BRE-Luc SMAD1/5/8 reporter, BMP6 agonist)
Conditions: BMP6 50 ng/mL
Experimental: All cell lines were cultured in DMEM, supplemented with […] and 1% Pen/Strep. All media reagents were obtained from Gibco. BMP6, BMP9, and TGFβ were obtained from R&D Systems. […] In this reporter gene cell based ALK2 and TGFβ assay, the C2C12 cell line was employed for the measurement of ALK2 activity, using a BRE-Luc SMAD1/5/8 reporter and BMP6 as the agonist. […] Luciferase reporter assays were read using Promega Steady-Glo Luciferase Assay System. […]
Quantity: IC50 (nM)

>>> result_number("CN1CCN(C2CCN(c3cnc4c(-c5ccnc6cc(Cl)ccc56)cnn4c3)CC2)CC1")
30
>>> result_number("Cc1cc(-c2cnn3cc(N4CC(N5CCN(C)CC5)C4)cnc23)c2ccc(F)cc2n1")
21
>>> result_number("Cc1cc2c(-c3cnn4cc(N5CCC(N6CCN(C)CC6)CC5)cnc34)ccnc2cc1F")
17
>>> result_number("COc1ccc2nccc(-c3cnn4cc(N5CC(N6CCN(C)CC6)C5)cnc34)c2c1")
6

I: COc1cc2c(-c3cnn4cc(N5CCN(C)CC5)cnc34)ccnc2cc1F
II: Cc1cc(-c2cnn3cc(N4CCC(N)CC4)cnc23)c2ccccc2n1
Q: Which item exceeds the other in IC50, I or II ? Please identify the chosen entry by its label.
Ans: I
(I: 298 nM, II: 37 nM)
